meta.source: the RNAGym collection of RNA variant scans (doi:10.7554/elife.80360)

B1: HDV Ribozyme (parent)
chain: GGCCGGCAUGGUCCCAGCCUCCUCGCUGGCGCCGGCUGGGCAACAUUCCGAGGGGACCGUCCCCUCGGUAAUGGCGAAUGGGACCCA

variants of: B1; assay: self-cleavage, relative activity (ratio to wild type); higher = more cleavage; co-transcriptional
Reported self-cleavage values follow for various variants

variant description	self-cleavage
C48U A51U	1.07
C15A U65A	0.388
C33U A42C	0.259
C61G U79A	0.739
U12A A16G	0.383
C13A U69C	0.111
G35C A87C	0.0866
A83U A87G	0.531
G28C G82A	0.0852
C61U U69A	0.914
C7G A51U	0.107
C30A A42C	0.14
A42C U60A	0.189
A8G U37C	1.22
A42U A45C	0.361
U23G C30G	0.0536
C18G G80A	0.0563
G6A A56G	0.848
A8U A16C	0.831
C24U G34C	0.135
G29A A71U	0.0615
G67C U79C	0.305
